Reported Metric: melting point

Nc1c(C2=NCCS2)cnn1-c1ccc(Br)cc1 [Compound 1i]	282 to 284 °C
Clc1cccc(-n2cc(C3=NCCS3)cn2)c1 [Compound 2b]	88 to 90 °C
c1ccc(-n2cc(C3=NCCS3)cn2)cc1 [Compound 2a]	112 to 114 °C

Please supply the value of reported melting point for the item Nc1c(C2=NCCS2)cnn1-c1ccc(Cl)cc1Cl [Compound 1c]
209 to 212 °C

Please supply the value of reported melting point for the item Clc1cccc(-n2cc(C3=NCCS3)cn2)c1Cl [Compound 2l]
112 to 114 °C

Please supply the value of reported melting point for the item COc1ccc(-n2cc(C3=NCCS3)cn2)cc1 [Compound 2k]
114 to 116 °C

Please supply the value of reported melting point for the item Nc1c(C2=NCCS2)cnn1-c1ccc(F)cc1 [Compound 1g]
244 to 246 °C

* * *

Reported Metric: melting point

Clc1cc(Cl)cc(-n2cc(C3=NCCS3)cn2)c1	134 to 136 °C

Please supply the value of reported melting point for the item Nc1c(C2=NCCS2)cnn1-c1cc(Cl)cc(Cl)c1
232 to 234 °C

Please supply the value of reported melting point for the item Nc1c(C2=NCCS2)cnn1-c1ccc(Cl)c(Cl)c1
279 to 282 °C

Please supply the value of reported melting point for the item Brc1cccc(-n2cc(C3=NCCS3)cn2)c1
104 to 106 °C

* * *

test system: T. cruzi (Dm28c-Luc) trypomastigotes; assay: microbe, parasite or virus in culture; type: cell-based, Trypanosoma cruzi; settings: Trypanosoma cruzi; Dm28c-Luc, 24 h, mean ± SD; read-out: Trypanocidal Activity Trypomastigotes IC90
Reported Metric: log10 of IC90 (log10 of the value in µM)
Remember, log10 of IC90, in µM.

// below: answered molecules
Fc1cccc(-n2cc(C3=NCCS3)cn2)c1	1.56
O=C(Cn1ccnc1[N+](=O)[O-])NCc1ccccc1 [Bz, benznidazole, reference compound]	1.98

Please supply the value of reported log10 of IC90 for the item COc1ccc(-n2ncc(C3=NCCS3)c2N)cc1
1.97

Please supply the value of reported log10 of IC90 for the item Brc1cccc(-n2cc(C3=NCCS3)cn2)c1
1.68

Please supply the value of reported log10 of IC90 for the item Fc1ccc(-n2cc(C3=NCCS3)cn2)cc1
1.48

Please supply the value of reported log10 of IC90 for the item Clc1cccc(-n2cc(C3=NCCS3)cn2)c1
0.94

Please supply the value of reported log10 of IC90 for the item Clc1ccc(-n2cc(C3=NCCS3)cn2)cc1Cl
0.84

* * *

Measured Trypomastigotes SI (CC50 of Vero cells/IC50) of individual entries
system: T. cruzi (Dm28c-Luc) trypomastigotes; experiment: microbe, parasite or virus in culture; format: cell-based, Trypanosoma cruzi; conditions: selectivity index vs Vero cells
Keep it simple and answer with nothing but the number.

// below: answered compounds
Clc1cccc(-n2cc(C3=NCCS3)cn2)c1	100.2
Clc1cccc(-n2cc(C3=NCCS3)cn2)c1Cl	3.44
Fc1ccc(-n2cc(C3=NCCS3)cn2)cc1	7.3

Please supply the value of reported Trypomastigotes SI (CC50 of Vero cells/IC50) for the item Nc1c(C2=NCCS2)cnn1-c1ccccc1
3.7

Please supply the value of reported Trypomastigotes SI (CC50 of Vero cells/IC50) for the item Fc1cccc(-n2cc(C3=NCCS3)cn2)c1
3.8

Please supply the value of reported Trypomastigotes SI (CC50 of Vero cells/IC50) for the item c1ccc(-n2cc(C3=NCCS3)cn2)cc1
166.8

Please supply the value of reported Trypomastigotes SI (CC50 of Vero cells/IC50) for the item Clc1ccc(-n2cc(C3=NCCS3)cn2)cc1
143.6

Please supply the value of reported Trypomastigotes SI (CC50 of Vero cells/IC50) for the item Brc1cccc(-n2cc(C3=NCCS3)cn2)c1
7.11

Please supply the value of reported Trypomastigotes SI (CC50 of Vero cells/IC50) for the item COc1ccc(-n2cc(C3=NCCS3)cn2)cc1
36.1

src = paper PMC9146228
